- Test Name: Chemical stability in human blood plasma
- Assay type: in vitro ADME
- Measurement Context: pooled human blood plasma; 10 μm; 4 hours at 37° C.; substance amount remaining
Counter-ions that a name gives are not always drawn.
Recorded Metric: Stability in blood plasma, % (%)

Compound | Recorded Metric | Number
C=CC(=O)Nc1cc(Nc2nccc(C(=O)c3ccc(OC4CC4)cc3)n2)c(OC)cc1N(C)CCN(C)C | Stability in blood plasma, % | 86.0
C=CC(=O)Nc1cc(Nc2nccc(C(=O)c3ccc(OCCOC)cc3)n2)c(OC)cc1N(C)CCN(C)C | Stability in blood plasma, % | 99.1
C=CC(=O)Nc1cc(Nc2nccc(C(=O)c3ccc(N4CC[C@H](O)C4)cc3)n2)c(OC)cc1N(C)CCN(C)C.O=CO | Stability in blood plasma, % | 96.9
C=CC(=O)Nc1cc(Nc2cc(C(=O)c3ccc(-c4cnn(C)c4)cc3)ccn2)c(OC)cc1N(C)CCN(C)C | Stability in blood plasma, % | 100.0
C=CC(=O)Nc1cc(Nc2nccc(C(=O)c3ccc(N4CC[C@@H](O)C4)cc3)n2)c(OC)cc1N(C)CCN(C)C | Stability in blood plasma, % | 94.0
C=CC(=O)Nc1cc(Nc2cc(C(=O)c3ccc(N4CC(OC)C4)cc3)ccn2)c(OC)cc1N(C)CCN(C)C (racemic) | Stability in blood plasma, % | 91.8
C=CC(=O)Nc1cc(Nc2nccc(C(=O)c3ccc(N4CCC[C@H](OC)C4)cc3)n2)c(OC)cc1N(C)CCN(C)C | Stability in blood plasma, % | 95.7
C=CC(=O)Nc1cc(Nc2nccc(C(=O)c3cccc([N+](=O)[O-])c3)n2)c(OC)cc1N(C)CCN(C)C | Stability in blood plasma, % | 82.7
C=CC(=O)Nc1cc(Nc2nccc(C(=O)c3ccc(OCCC)cc3OCCC)n2)c(OC)cc1N(C)CCN(C)C | Stability in blood plasma, % | 90.0
C=CC(=O)Nc1cc(Nc2cc(C(=O)c3ccccc3)ccn2)c(OC)cc1N(C)CCN(C)C | Stability in blood plasma, % | 82.1
C=CC(=O)Nc1cc(Nc2nccc(C(=O)c3ccc(NCCOC)cc3)n2)c(OC)cc1N(C)CCN(C)C | Stability in blood plasma, % | 89.4
C=CC(=O)Nc1cc(Nc2nccc(C(=O)c3ccc(N4CCCCC4)cc3OC)n2)c(OC)cc1N(C)CCN(C)C | Stability in blood plasma, % | 92.2
C=CC(=O)Nc1cc(Nc2nccc(C(=O)c3ccc(N4CCN(C)CC4)cc3)n2)c(OC)cc1N(C)CCN(C)C [EGFR_3365_62, formate] | Stability in blood plasma, % | 98.4
C=CC(=O)Nc1cc(Nc2nccc(C(=O)c3cccc(OC)c3)n2)c(OC)cc1N(C)CCN(C)C | Stability in blood plasma, % | 67.5
C=CC(=O)Nc1cc(Nc2nccc(C(=O)c3ccc(OCC)cc3OCC)n2)c(OC)cc1N(C)CCN(C)C | Stability in blood plasma, % | 78.4
C=CC(=O)Nc1cc(Nc2nccc(C(=O)c3ccc(OCCC)cc3OC)n2)c(OC)cc1N(C)CCN(C)C | Stability in blood plasma, % | 99.2
C=CC(=O)Nc1cc(Nc2nccc(C(=O)c3ccc(OCCCC)cc3)n2)c(OC)cc1N(C)CCN(C)C | Stability in blood plasma, % | 97.0
C=CC(=O)Nc1cc(Nc2nccc(C(=O)c3ccc(N4CC[C@H](OC)C4)cc3)n2)c(OC)cc1N(C)CCN(C)C | Stability in blood plasma, % | 93.9
C=CC(=O)Nc1cc(Nc2nccc(C(=O)c3ccc(N4CC(OC)C4)cc3)n2)c(OC)cc1N(C)CCN(C)C | Stability in blood plasma, % | 91.8

----------
- Test Name: Permeability through monolayer of Caco-2 cells
- Format: in vitro ADME
- Measurement Context: human; Caco-2 monolayer; A→B; 10 μM; pH 6.5 upper / pH 7.4 lower; 2 h at 37° C.

Substance Smiles | Papp A→B at 2 h, 10 µM
C=CC(=O)Nc1cc(Nc2nccc(C(=O)c3ccc(OC)cc3OCCC)n2)c(OC)cc1N(C)CCN(C)C | 27.5 ×10⁻⁶ cm/s
C=CC(=O)Nc1cc(Nc2cc(C(=O)c3ccccc3)ccn2)c(OC)cc1N(C)CCN(C)C | 5.9 ×10⁻⁶ cm/s
C=CC(=O)Nc1cc(Nc2nccc(C(=O)c3ccc(OCCC)cc3OCCC)n2)c(OC)cc1N(C)CCN(C)C | 2.5 ×10⁻⁶ cm/s
C=CC(=O)Nc1cc(Nc2cc(C(=O)c3ccc(OCC)cc3)ccn2)c(OC)cc1N(C)CCN(C)C | 3 ×10⁻⁶ cm/s
C=CC(=O)Nc1cc(Nc2nccc(C(=O)c3ccc(N(CC)CC)cc3)n2)c(OC)cc1N(C)CCN(C)C | 3.5 ×10⁻⁶ cm/s
C=CC(=O)Nc1cc(Nc2nccc(C(=O)c3ccc(N(C)C)cc3)n2)c(OC)cc1N(C)CCN(C)C | 5.1 ×10⁻⁶ cm/s
C=CC(=O)Nc1cc(Nc2nccc(C(=O)c3ccc(N4CCC(N)CC4)cc3)n2)c(OC)cc1N(C)CCN(C)C | 1.87 ×10⁻⁶ cm/s
C=CC(=O)Nc1cc(Nc2nccc(C(=O)c3ccc(OCCCC)cc3)n2)c(OC)cc1N(C)CCN(C)C | 1.3 ×10⁻⁶ cm/s
C=CC(=O)Nc1cc(Nc2cc(C(=O)c3ccc(OCCC)cc3)ccn2)c(OC)cc1N(C)CCN(C)C | 2 ×10⁻⁶ cm/s
C=CC(=O)Nc1cc(Nc2nccc(C(=O)c3ccc(OCCC)cc3)n2)c(OC)cc1N(C)CCN(C)C | 4.36 ×10⁻⁶ cm/s
C=CC(=O)Nc1cc(Nc2nccc(C(=O)c3ccc(N4CC(OC)C4)cc3)n2)c(OC)cc1N(C)CCN(C)C | 5.5 ×10⁻⁶ cm/s
C=CC(=O)Nc1cc(Nc2nccc(C(=O)c3ccc(N4CCC4)cc3)n2)c(OC)cc1N(C)CCN(C)C | 5.8 ×10⁻⁶ cm/s
C=CC(=O)Nc1cc(Nc2nccc(C(=O)c3ccccc3Br)n2)c(OC)cc1N(C)CCN(C)C | 1.94 ×10⁻⁶ cm/s

----------
- Test Name: Enzyme stability in human liver S9 fractions
- Type: in vitro ADME
- Measurement Context: 0.5 mg/mL pooled human liver S9 fractions; 10 μM compound; 37° C.; pH 7.4; read-out: Stability in liver S9 fractions, Clint
Listed here: items and their measured Intrinsic clearance in human liver S9 fractions at 10 µM.
Recorded Metric: Intrinsic clearance in human liver S9 fractions at 10 µM

Molecule | Result
C=CC(=O)Nc1cc(Nc2nccc(C(=O)c3ccc(N4CCC4)cc3)n2)c(OC)cc1N(C)CCN(C)C [EGFR_3365_58] | 17.7 µL/min/mg
C=CC(=O)Nc1cc(Nc2nccc(C(=O)c3ccc(N4CCC(N)CC4)cc3)n2)c(OC)cc1N(C)CCN(C)C [EGFR_3365_121] | 1.4 µL/min/mg
C=CC(=O)Nc1cc(Nc2nccc(C(=O)c3ccc(OC)cc3OC(C)C)n2)c(OC)cc1N(C)CCN(C)C [EGFR_3365_104] | 21.8 µL/min/mg
C=CC(=O)Nc1cc(Nc2nccc(C(=O)c3ccc(N4CCN(C)CC4)cc3OC)n2)c(OC)cc1N(C)CCN(C)C [EGFR_3365_120] | 3.8 µL/min/mg
C=CC(=O)Nc1cc(Nc2nccc(C(=O)c3ccc(OCCC)cc3OC)n2)c(OC)cc1N(C)CCN(C)C [EGFR_3365_101] | 21.3 µL/min/mg
C=CC(=O)Nc1cc(Nc2cc(C(=O)c3ccc(OC)cc3OC)ccn2)c(OC)cc1N(C)CCN(C)C [EGFR_3365_87] | 11.6 µL/min/mg
C=CC(=O)Nc1cc(Nc2nccc(C(=O)c3ccc(OC4CCCCC4)cc3)n2)c(OC)cc1N(C)CCN(C)C [EGFR_3365_67] | 18.7 µL/min/mg
C=CC(=O)Nc1cc(Nc2nccc(C(=O)c3ccc(N4CCC[C@@H](O)C4)cc3)n2)c(OC)cc1N(C)CCN(C)C [EGFR_3365_109] | 14.8 µL/min/mg
C=CC(=O)Nc1cc(Nc2cc(C(=O)c3ccc(N4CCCC4)cc3)ccn2)c(OC)cc1N(C)CCN(C)C [EGFR_3365_56] | 9.1 µL/min/mg
C=CC(=O)Nc1cc(Nc2nccc(C(=O)c3ccc(N4CCC[C@H](O)C4)cc3)n2)c(OC)cc1N(C)CCN(C)C [EGFR_3365_108] | 12.8 µL/min/mg
C=CC(=O)Nc1cc(Nc2nccc(C(=O)c3ccc(NCCOC)cc3)n2)c(OC)cc1N(C)CCN(C)C [EGFR_3365_105] | 11.3 µL/min/mg
C=CC(=O)Nc1cc(Nc2nccc(C(=O)c3ccccc3C(F)(F)F)n2)c(OC)cc1N(C)CCN(C)C [EGFR_3365] | 13.6 µL/min/mg
